Test system: SK-MEL-2 melanoma
Experiment: NCI-60 one-dose screen, 48 h (100 = growth as untreated, 0 = no growth, -100 = all killed)
Conditions: 10 µM unless noted
About 83,000 compounds went through this panel and 20% of them were active in at least one assay; those are over-represented in the sample as a whole. Active and inactive are the calls of the source. Rule for the calls: active = growth percent below 10; inactive = the rest.
Each item that follows carries a reported growth.

Solved cases below.
Qu. Missing value: growth, SK-MEL-2 melanoma, entry COc1ccc(-c2nnc3n(C)c(=O)c4ccccc4n23)cc1N . Fill in?
Ans. 22% (inactive)

Qu. Missing value: growth, SK-MEL-2 melanoma, entry O=C(c1cc2ccccc2o1)c1nn(-c2ccccc2)/c(=N/N=Cc2cn(-c3ccccc3)nc2-c2cc3ccccc3oc2=O)s1 . Fill in?
Ans. 100% (inactive)

Qu. Missing value: growth, SK-MEL-2 melanoma, entry Nc1nc(=S)c2ncn(C3OC(COP(=O)(O)O)C(O)C3O)c2[nH]1 (stereo not given) . Fill in?
Ans. 14.9% (inactive)

Qu. Missing value: growth, SK-MEL-2 melanoma, entry Cc1ccc2c(n1)C(=O)c1[nH]c3ccccc3c1C2=O . Fill in?
Ans. 64.2% (inactive)

Qu. Missing value: growth, SK-MEL-2 melanoma, entry CCn1c(=S)sc2c(Nc3ccc(F)cc3)nc(-c3cccnc3)nc21 . Fill in?
Ans. 63.1% (inactive)

Qu. Missing value: growth, SK-MEL-2 melanoma, entry N#Cc1c(-c2cccs2)cc(-c2cccnc2)[nH]c1=O . Fill in?
Ans. 113% (inactive)

***
Qu. Missing value: growth, SK-MEL-2 melanoma, entry CCCCNc1ccc(C#N)c(OCCN(CC)CC)c1 . Fill in?
Ans. 105% (inactive)

Qu. Missing value: growth, SK-MEL-2 melanoma, entry Brc1ccc(-n2cc(-c3nn[nH]n3)c(-c3cccs3)n2)cc1 . Fill in?
Ans. 101% (inactive)

Qu. Missing value: growth, SK-MEL-2 melanoma, entry O=C(OCc1ccc2c(Cl)cc(Cl)c(O)c2n1)n1cncn1 . Fill in?
Ans. 36.6% (inactive)

Qu. Missing value: growth, SK-MEL-2 melanoma, entry C=CCn1c(SCC(=O)Nc2ccc(C(=O)/C=C/c3ccc(Cl)cc3)cc2)nnc1-c1cc(-c2ccc(S(N)(=O)=O)cc2)nc2ccccc12 . Fill in?
Ans. 103% (inactive)

* * *

System: HCT-116 colon
Assay: NCI-60 one-dose screen, 48 h
Conditions: 10 µM unless noted
About 83,000 compounds went through this panel and 20% of them were active in at least one assay; those are over-represented in the sample as a whole. Activity calls are given as the source filed them. How the source made its calls: active means growth percent below 10; inactive means the rest.
// one of active, inactive, no free text

Qu. Write down the call the test reported for this molecule. Item: O=C1C(Cl)=C(Oc2ccccc2)C(=O)c2ccccc21
Ans. inactive

Qu. Write down the call the test reported for this molecule. Item: C=C1C(=O)O[C@H]2[C@H]1CC/C(COC(=O)N[C@H]1C[C@H](O[C@H]3C[C@](O)(C(=O)CO)Cc4c(O)c5c(c(O)c43)C(=O)c3c(OC)cccc3C5=O)O[C@@H](C)[C@H]1O)=C\CC[C@@]1(C)O[C@@H]21
Ans. active

Qu. Write down the call the test reported for this molecule. Item: Cc1cc2c([nH]1)CSc1cc(S(=O)(=O)c3ccccc3)c(=O)[nH]c1-2
Ans. active

Qu. Write down the call the test reported for this molecule. Item: O=C1c2cccnc2C(=O)c2c1c(C(=O)NCCCN1CCCCC1)c1ccccn21
Ans. active

Qu. Write down the call the test reported for this molecule. Item: CCCCN1C(=O)/C(=c2\sc3n(c2=O)C2C(NN=3)N(CC)C(=O)N2CC)c2ccccc21 (stereo not drawn)
Ans. active

Qu. Write down the call the test reported for this molecule. Item: C[C@]12C=CC(=O)C=C1CCC1C2[C@@H](O)C[C@@]2(C)C1CC[C@]2(O)C(=O)COC(=O)CCC(=O)O (stereo partly drawn)
Ans. inactive

***
Qu. Write down the call the test reported for this molecule. Item: Cc1ccc(-c2nc3nc(-c4ccccc4)nc(N4CCNCC4)c3o2)cc1
Ans. active

Qu. Write down the call the test reported for this molecule. Item: Oc1c(Cl)cc(Cl)c2ccc(Cn3cc(-c4cc(C(F)(F)F)cc(C(F)(F)F)c4)nn3)nc12
Ans. active

* * *

Tested on: SNB-75 CNS
Experiment: NCI-60 one-dose screen, 48 h
Details: 10 µM unless noted
Compounds without any hit were thinned out: in the full panel of roughly 83,000, 20% have a hit. Active and inactive are the calls of the source. Rule for the calls: active = growth percent below 10; inactive = the rest.
// one of label 1 for active, label 0 for inactive, no free text

Known results for molecules:
Qu. Write down the call the test reported for this molecule. Item: C[C@]12CC[C@@H]3c4ccc(O)c([N+](=O)[O-])c4CC[C@H]3[C@@H]1CCC2=O
Ans. label 0

Qu. Write down the call the test reported for this molecule. Item: Fc1ccc2[nH]cc(-c3nonc3-c3c[nH]c4ccc(Br)cc34)c2c1
Ans. label 0

Qu. Write down the call the test reported for this molecule. Item: CC1(C)CC[C@]2(C(=O)O)CC[C@]3(C)C(=CC[C@@H]4[C@@]5(C)C/C(=C/O)C(=O)C(C)(C)[C@@H]5CC[C@]43C)[C@@H]2C1
Ans. label 0

***
Qu. Write down the call the test reported for this molecule. Item: O=C(OCc1ccc2cccc(O)c2n1)N1CCN(C(=O)c2cc3cc(F)ccc3[nH]2)CC1
Ans. label 1

Qu. Write down the call the test reported for this molecule. Item: COc1cccc(/C=C/C(=O)c2cc3c(N)c(C(=O)Nc4ccccc4)sc3nc2C)c1
Ans. label 1

* * *

System: SNB-75 CNS
Experiment: NCI-60 one-dose screen, 48 h (100 = growth as untreated, 0 = no growth, -100 = all killed)
Conditions: 10 µM unless noted
The panel holds about 83,000 compounds, 20% with a hit somewhere; the sample as a whole holds those more often.
Given measured growth, output Yes if it is greater than or equal to 70% and No if not.

Qu. Kindly determine if growth recorded for O=C(CSc1nc2ccc([N+](=O)[O-])cc2[nH]1)Nc1cccc(C(F)(F)F)c1 is above or exactly 70%.
Ans. No

Qu. Kindly determine if growth recorded for C=CCn1c(SCC(=O)Nc2ccc(C(=O)/C=C/c3cc4cc(OC)ccc4nc3Cl)cc2)nnc1-c1ccc(Br)cc1 is above or exactly 70%.
Ans. Yes

Qu. Kindly determine if growth recorded for CCOC(=O)c1c2c(n3ccc(C)cc13)C(=O)c1ccccc1C2=O is above or exactly 70%.
Ans. Yes

Qu. Kindly determine if growth recorded for O=C1COCCN1c1ccc(Nc2nc(Cl)nc(OCc3cn(Cc4ccccc4)nn3)n2)cc1 is above or exactly 70%.
Ans. Yes

Turning now to a further record.
Qu. Kindly determine if growth recorded for CCCCCC(=O)OCC(=O)O[C@@H]1C[C@]2(C(C)C)O[C@@]1(C)[C@@H]1CC[C@@H](C)[C@H]1[C@@H]2OC(=O)/C=C/c1ccccc1 is above or exactly 70%.
Ans. Yes

* * *

System: CCRF-CEM leukemia
Assay: NCI-60 one-dose screen, 48 h (100 = growth as untreated, 0 = no growth, -100 = all killed)
Details: 10 µM unless noted
This is part of a sample that, as a whole, favours compounds with a hit. Of some 83,000 tested, about 20% had one in any assay. Activity calls are given as the source filed them. How the source made its calls: active means growth percent below 10; inactive means the rest.
ASSAY_ENDPOINT: growth

Qu. Missing value: growth, CCRF-CEM leukemia, entry COc1cccc(CNc2ncnc3c2ncn3C2OC(CO)C(O)C2O)c1O (stereo not given) . Fill in?
Ans. -17.3% (active)

Qu. Missing value: growth, CCRF-CEM leukemia, entry O=C1/C(=C\c2cn(-c3ccccc3)nc2-c2ccc(-c3cccs3)cc2)CCc2ccccc21 . Fill in?
Ans. 48% (inactive)

Qu. Missing value: growth, CCRF-CEM leukemia, entry C1=C(N2CCCC2)CCC1 . Fill in?
Ans. 106% (inactive)

Qu. Missing value: growth, CCRF-CEM leukemia, entry COC(=O)c1cc(-c2ccc(OC)cc2)[nH]c1N/N=C/c1c(Cl)cccc1Cl . Fill in?
Ans. 12.2% (inactive)

Qu. Missing value: growth, CCRF-CEM leukemia, entry CCCCNC(=O)Oc1ccc(/C(=C(/CC)Cc2ccccc2)c2ccc(OCCN3CCCCCC3)cc2)cc1 . Fill in?
Ans. 5.36% (active)

Qu. Missing value: growth, CCRF-CEM leukemia, entry CCn1c(=S)sc2c(Nc3ccc(F)cc3)nc(-c3cccnc3)nc21 . Fill in?
Ans. 102% (inactive)

Qu. Missing value: growth, CCRF-CEM leukemia, entry O=S(=O)(NCCNc1cc(-c2c(-c3cccc(O)c3)nc3sccn23)ccn1)c1ccc(C(F)(F)F)cc1 . Fill in?
Ans. 25.4% (inactive)

* * *

System: COLO 205 colon
Test: NCI-60 one-dose screen, 48 h
Details: 10 µM unless noted
The panel holds about 83,000 compounds, 20% with a hit somewhere; the sample as a whole holds those more often. Activity calls are given as the source filed them. The calls were made as follows: active = growth percent below 10; inactive = the rest.
// one of active, inactive, no free text

Known results for molecules:
Qu. Write down the call the test reported for this molecule. Item: CC1(C)CCC(S(=O)(=O)c2ccc3c(c2)/C(=N\O)c2cc(S(=O)(=O)N4CCC(O)(c5cccc(C(F)(F)F)c5)CC4)ccc2-3)CC1
Ans. active

Qu. Write down the call the test reported for this molecule. Item: C=C(C)[C@@H]1CC[C@]2(C(=O)O)CC[C@]3(C)[C@H](CC[C@@H]4[C@@]5(C)C[C@@H](Cc6cn(CCO[C@@H]7O[C@H](COC(C)=O)[C@H](OC(C)=O)[C@H](OC(C)=O)[C@H]7OC(C)=O)nn6)[C@H](O)C(C)(C)[C@@H]5CC[C@]43C)[C@@H]12
Ans. inactive

Qu. Write down the call the test reported for this molecule. Item: C=CCc1c2c(c(OC)c3ccoc13)C(=O)/C(=C/c1ccccc1OC)O2
Ans. inactive

Turning now to a further record.
Qu. Write down the call the test reported for this molecule. Item: COc1cc(-c2cc(-c3ccc(N(C)C)cc3)nc(N3CCC(O)CC3)c2C#N)cc(OC)c1OC
Ans. active
